molecular target: Q9I291; experiment: SEC; Superdex 200 10/300 GL, 50 mM Tris-HCl pH 8.0, 300 mM NaCl, 10 mM MgCl2; oligomeric state calculated from elution volumes of proteins of known size; addition of UTP, Glc-1-P or UDP-Glc did not affect the oligomerization of the WT
observationType: N of the monomer peak (minor peak)

protein | testResult
PaUGP H74A (enzyme, UDP-glucose pyrophosphorylase of Pseudomonas aeruginosa (galU), residues 1-279, point mutant of Strep-PaUGP; Same construct as m1; source: E. coli BL21(DE3), purified (Strep-Tactin Sepharose); not shown: Strep-tagII, N-terminal, kept) MIKKCLFPAAGYGTRFLPATKAMPKEMLPVVNKPLIQYAVEEALEAGLSEIGIVTGRGKRSLEDHFDISYELEAQIRNTDKEKYLVGIRRLIDECTFAYTRQVEMKGLGHAILTGRPLIGDEPFAVVLADDLCLNLEGDSVLKQMVKLYNQFRCSIVAIQEVPPEETNKYGVIAGEMIRDDIFRVNTMVEKPKPEEAPSNLAIIGRYILTPDIFDLIEQTEPGKGGEIQITDALMKQAQDGCVLAYKFKGKRFDCGSAEGYIEATNFCYENLYKTGKAH | 1.3

These entries and their values trace back to paper PMC11005391.
